- test_target: TNKS1 (Homo sapiens)
- Sequence (O95271 whole entry): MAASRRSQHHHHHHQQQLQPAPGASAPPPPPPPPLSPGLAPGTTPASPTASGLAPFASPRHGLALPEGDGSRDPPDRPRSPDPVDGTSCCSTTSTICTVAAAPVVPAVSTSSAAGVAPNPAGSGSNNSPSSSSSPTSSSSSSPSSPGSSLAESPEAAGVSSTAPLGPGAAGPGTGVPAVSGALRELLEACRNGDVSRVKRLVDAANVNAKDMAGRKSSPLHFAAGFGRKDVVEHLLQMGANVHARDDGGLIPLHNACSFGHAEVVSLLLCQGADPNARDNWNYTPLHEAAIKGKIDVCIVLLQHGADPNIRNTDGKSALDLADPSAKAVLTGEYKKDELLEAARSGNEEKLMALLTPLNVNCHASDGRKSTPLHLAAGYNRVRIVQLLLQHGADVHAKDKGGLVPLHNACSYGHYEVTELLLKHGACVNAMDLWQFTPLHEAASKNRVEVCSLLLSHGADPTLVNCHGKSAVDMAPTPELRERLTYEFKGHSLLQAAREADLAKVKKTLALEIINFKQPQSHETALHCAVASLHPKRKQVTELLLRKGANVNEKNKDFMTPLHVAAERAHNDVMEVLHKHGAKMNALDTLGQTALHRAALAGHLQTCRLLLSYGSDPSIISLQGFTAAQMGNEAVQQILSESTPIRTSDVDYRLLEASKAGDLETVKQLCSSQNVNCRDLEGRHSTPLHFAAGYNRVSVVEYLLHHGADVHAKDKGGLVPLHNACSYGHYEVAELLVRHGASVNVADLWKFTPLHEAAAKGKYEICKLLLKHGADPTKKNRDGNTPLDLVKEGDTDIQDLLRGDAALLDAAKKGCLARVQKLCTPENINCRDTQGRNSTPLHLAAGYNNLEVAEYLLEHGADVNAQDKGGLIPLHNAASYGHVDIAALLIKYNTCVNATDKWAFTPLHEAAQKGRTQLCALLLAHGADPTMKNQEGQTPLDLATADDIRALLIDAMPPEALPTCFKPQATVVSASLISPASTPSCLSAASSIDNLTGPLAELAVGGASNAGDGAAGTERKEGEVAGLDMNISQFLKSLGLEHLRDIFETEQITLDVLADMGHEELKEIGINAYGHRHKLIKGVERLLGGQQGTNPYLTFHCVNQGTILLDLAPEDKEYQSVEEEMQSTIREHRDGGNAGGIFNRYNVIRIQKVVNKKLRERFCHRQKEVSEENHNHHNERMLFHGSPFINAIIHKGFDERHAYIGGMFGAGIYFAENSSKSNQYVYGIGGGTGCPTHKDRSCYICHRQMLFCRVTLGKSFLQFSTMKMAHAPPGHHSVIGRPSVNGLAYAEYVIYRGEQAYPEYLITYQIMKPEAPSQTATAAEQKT
- assay_protocol: Modified TNKS1 Assay 3 (BPS kit #80573, biotin-NAD+, 96 well)
- Assay type: biochemical
- measurement_context: human TNKS1, BPS kit #80573, 96 well
Structures can show the parent of a compound that is named as a salt.
Binarize IC50 at 90 nM; below is true (1), at or above is false (0).

stdin: Is IC50 of CC1CCCN(CCNC(=O)c2[nH]cnc2C(=O)Nc2ccc(NC(=O)c3ccc(F)cc3Cl)cc2)C1 (centres unmarked) [Example 208] strictly below 90 nM?
stdout: true (1)

stdin: Then what about the compound O=C(Nc1ccc(NC(=O)c2nc[nH]c2C(=O)NCC2CCOC2)cc1)c1ccc(F)cc1Cl (centres unmarked) [Example 235] ?
stdout: false (0)

stdin: Then what about the compound CC1CCCN(CCNC(=O)c2[nH]cnc2C(=O)Nc2ccc(NC(=O)c3ccccc3Cl)cc2)C1 (centres unmarked) [Example 210] ?
stdout: true (1)

stdin: Then what about the compound CN1CCC(CNC(=O)c2nc[nH]c2C(=O)Nc2ccc(NC(=O)c3ccc(F)cc3Cl)cc2)CC1 [Example 408] ?
stdout: true (1)

stdin: Then what about the compound CC(CN1CCOCC1)NC(=O)c1[nH]cnc1C(=O)Nc1ccc(NC(=O)c2ccc(F)cc2)cc1 (single isomer, unassigned; enantiomer 1) [Example 295] ?
stdout: false (0)

stdin: Then what about the compound O=C(Nc1ccc(NC(=O)c2[nH]cnc2C(=O)N2CC(F)C2)cc1)c1cc(F)c(F)cc1Cl [Example 47] ?
stdout: false (0)

stdin: Then what about the compound CC1CCCC(C)N1CCNC(=O)c1nc[nH]c1C(=O)Nc1ccc(NC(=O)c2ccc(F)cc2Cl)cc1 (centres unmarked) [Example 401] ?
stdout: false (0)

stdin: Then what about the compound O=C(Nc1ccc(NC(=O)c2nc[nH]c2C(=O)NCC2CC2)cc1)c1ccc(F)cc1Cl [Example 128] ?
stdout: false (0)

stdin: Then what about the compound COC1CCN(CCNC(=O)c2[nH]cnc2C(=O)Nc2ccc(NC(=O)c3ccc(F)cc3Cl)cc2)C1 (centres unmarked) [Example 265] ?
stdout: true (1)

stdin: Then what about the compound O=C(Nc1ccc(NC(=O)c2nc[nH]c2C(=O)NCCN2CCC(F)(F)CC2)cc1)c1ccc(F)cc1Br [Example 215] ?
stdout: false (0)

stdin: Then what about the compound CNC(=O)c1nc[nH]c1C(=O)Nc1ccc(NC(=O)c2ccc(C)cc2Cl)cc1 [Example 244] ?
stdout: false (0)

stdin: Then what about the compound Cc1nc(C(=O)Nc2ccc(NC(=O)c3ccc(F)cc3Cl)cc2)c(C(=O)NCCN2CCCCC2)[nH]1 [Example 67] ?
stdout: true (1)

stdin: Then what about the compound CN(C)CCNC(=O)c1nc[nH]c1C(=O)Nc1ccc(NC(=O)c2ccc(S(C)(=O)=O)cc2Cl)cc1 [Example 54] ?
stdout: true (1)

stdin: Then what about the compound CC(C)(C)NC(=O)c1[nH]cnc1C(=O)Nc1ccc(NC(=O)c2ccc(F)cc2Cl)cc1 [Example 133] ?
stdout: false (0)

stdin: Then what about the compound O=C(Nc1ccc(NC(=O)c2nc[nH]c2C(=O)N[C@@H]2CCNC2)cc1)c1ccc(F)cc1Cl [Example 282, hydrochloride salt] ?
stdout: true (1)

stdin: Then what about the compound O=C(Nc1ccc(NC(=O)c2ocnc2C(=O)NCCN2CC[C@H](F)C2)cc1)c1ccc(F)cc1Cl [Example 221] ?
stdout: false (0)

stdin: Then what about the compound O=C(Nc1ccc(NC(=O)c2nc[nH]c2C(=O)NCCN2CC[C@@H](F)C2)cc1)c1ccc(F)cc1Cl [Example 231] ?
stdout: false (0)

stdin: Then what about the compound CC(C)(N)CNC(=O)c1[nH]cnc1C(=O)Nc1ccc(NC(=O)c2ccc(F)cc2Cl)cc1 [Example 280] ?
stdout: true (1)

stdin: Then what about the compound CCN1CCCC1CNC(=O)c1nc[nH]c1C(=O)Nc1ccc(NC(=O)c2ccc(F)cc2Cl)cc1 (centres unmarked) [Example 390] ?
stdout: true (1)

stdin: Then what about the compound CN(C)CCNC(=O)c1ncoc1C(=O)Nc1ccc(NC(=O)c2ccc(F)cc2Cl)cc1 [Example 31] ?
stdout: false (0)

stdin: Then what about the compound C[C@H]1CCCCN1CCNC(=O)c1[nH]cnc1C(=O)Nc1ccc(NC(=O)c2ccc(F)cc2Cl)cc1 [Example 266, formic acid salt] ?
stdout: true (1)

stdin: Then what about the compound O=C(Nc1ccc(NC(=O)c2nc[nH]c2C(=O)NCCN2CCC[C@@H](F)C2)cc1)c1ccc(F)cc1Cl [Example 277] ?
stdout: true (1)

stdin: Then what about the compound CNC(=O)c1nc[nH]c1C(=O)Nc1ccc(NC(=O)c2cccc(C)c2Cl)cc1 [Example 346] ?
stdout: false (0)

stdin: Then what about the compound O=C(Nc1ccc(NC(=O)c2nc[nH]c2C(=O)NCCN2CCC[C@H](F)C2)cc1)c1ccc(F)cc1Cl [Example 276] ?
stdout: true (1)

stdin: Then what about the compound CNC(=O)c1nc[nH]c1C(=O)Nc1ccc(NC(=O)c2cc(OC)c(OC)cc2Cl)cc1 [Example 240] ?
stdout: true (1)

stdin: Then what about the compound O=C(Nc1ccc(NC(=O)c2nc[nH]c2C(=O)NCCN2CCCC(F)(F)C2)cc1)c1ccc(F)cc1Cl [Example 225] ?
stdout: false (0)

stdin: Then what about the compound O=C(Nc1ccc(NC(=O)c2nc[nH]c2C(=O)NCCN2CCC[C@H](O)C2)cc1)c1ccc(F)cc1Cl [Example 271] ?
stdout: true (1)

stdin: Then what about the compound O=C(Nc1ccc(NC(=O)c2[nH]cnc2C(=O)N2CC(F)C2)cc1)c1ccc(F)cc1Cl [Example 41] ?
stdout: false (0)

----------
What log10 of IC50 was measured for each of the following?
- test_target: TNKS2 (Homo sapiens, UniProt Q9H2K2)
- Sequence (Q9H2K2 1-1166): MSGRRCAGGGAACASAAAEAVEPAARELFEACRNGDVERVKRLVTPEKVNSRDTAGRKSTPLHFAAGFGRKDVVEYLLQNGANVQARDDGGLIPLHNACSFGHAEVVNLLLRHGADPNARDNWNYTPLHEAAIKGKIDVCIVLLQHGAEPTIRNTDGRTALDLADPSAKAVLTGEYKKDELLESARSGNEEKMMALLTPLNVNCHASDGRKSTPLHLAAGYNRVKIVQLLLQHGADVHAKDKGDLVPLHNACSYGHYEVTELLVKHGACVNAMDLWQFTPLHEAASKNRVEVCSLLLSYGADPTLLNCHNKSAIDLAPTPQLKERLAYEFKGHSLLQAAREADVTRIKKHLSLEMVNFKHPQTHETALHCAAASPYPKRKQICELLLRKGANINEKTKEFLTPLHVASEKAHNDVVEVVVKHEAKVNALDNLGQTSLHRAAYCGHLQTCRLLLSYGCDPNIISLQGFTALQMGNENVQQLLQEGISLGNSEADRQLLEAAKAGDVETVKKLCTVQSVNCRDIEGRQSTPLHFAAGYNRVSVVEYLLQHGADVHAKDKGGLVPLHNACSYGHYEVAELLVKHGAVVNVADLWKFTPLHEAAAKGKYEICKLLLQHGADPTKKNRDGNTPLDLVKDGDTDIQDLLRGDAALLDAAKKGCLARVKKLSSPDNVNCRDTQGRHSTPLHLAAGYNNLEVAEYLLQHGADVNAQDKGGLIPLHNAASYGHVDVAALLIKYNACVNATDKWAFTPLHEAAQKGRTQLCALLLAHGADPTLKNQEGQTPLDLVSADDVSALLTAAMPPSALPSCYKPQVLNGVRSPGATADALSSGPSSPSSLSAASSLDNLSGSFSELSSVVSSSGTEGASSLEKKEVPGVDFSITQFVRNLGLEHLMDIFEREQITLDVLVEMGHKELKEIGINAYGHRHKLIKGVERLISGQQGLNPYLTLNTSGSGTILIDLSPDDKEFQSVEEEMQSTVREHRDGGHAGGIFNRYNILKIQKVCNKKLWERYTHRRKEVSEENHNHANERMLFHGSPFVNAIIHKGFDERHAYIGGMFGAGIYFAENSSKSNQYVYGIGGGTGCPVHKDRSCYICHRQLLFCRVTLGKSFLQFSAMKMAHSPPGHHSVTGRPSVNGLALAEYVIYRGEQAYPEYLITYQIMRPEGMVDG
- assay_protocol: Modified TNKS2 Assay 2 (auto-parsylation, [3H]-NAD+ SPA)
- Format: biochemical
- measurement_context: 6 nM TNKS2, 96 well
A value of 2 here means IC50 of 100 in nM, since values are log10.

stdin: Query (molecule): CC1CCN(CCNC(=O)c2nc[nH]c2C(=O)Nc2ccc(NC(=O)c3ccc(F)cc3Cl)cc2)CC1 ; field requested: log10 of IC50
stdout: 0.85

stdin: Then what about the molecule O=C(Nc1ccc(NC(=O)c2ocnc2C(=O)NCCN2CCCCC2)cc1)c1ccc(F)cc1Cl ?
stdout: 1.00

stdin: Then what about the molecule CN(C)CCNC(=O)c1nc[nH]c1C(=O)Nc1ccc(NC(=O)c2ccc(F)cc2)c(F)c1 ?
stdout: 3.26

stdin: Then what about the molecule CNC(=O)c1nc[nH]c1C(=O)Nc1ccc(NC(=O)c2ccc(F)cc2Cl)nc1 ?
stdout: 2.00

stdin: Then what about the molecule CNC(=O)c1nc[nH]c1C(=O)Nc1ccc(NC(=O)c2ncccc2Cl)cc1 ?
stdout: 2.76

stdin: Then what about the molecule Cc1nc(C(=O)Nc2ccc(NC(=O)c3ccc(F)cc3Cl)cc2)c(C(=O)NCCN(C)C)[nH]1 ?
stdout: 1.60

stdin: Then what about the molecule O=C(Nc1ccc(NC(=O)c2nc[nH]c2C(=O)NCCN2CCCCC2)cc1)c1ccc(F)cc1Br ?
stdout: 0.30

stdin: Then what about the molecule O=C(Nc1ccc(NC(=O)c2[nH]cnc2C(=O)N2CC3(COC3)C2)cc1)c1cc(F)c(F)cc1Cl ?
stdout: 2.34

stdin: Then what about the molecule CNC(=O)c1nc[nH]c1C(=O)Nc1ccc(NC(=O)c2cc(Br)ccc2Cl)cc1 ?
stdout: 3.00

stdin: Then what about the molecule CNC(=O)c1nc[nH]c1C(=O)Nc1ccc(NC(=O)c2ccc(C#N)cc2)cc1 ?
stdout: 2.98
